- Target Or Test System: T1, human interleukin-23 receptor (IL23R) (human, UniProt Q5VWK5 24-355, limits assumed)
- T1 construct: also called human IL23R
- T1 sequence (looked up): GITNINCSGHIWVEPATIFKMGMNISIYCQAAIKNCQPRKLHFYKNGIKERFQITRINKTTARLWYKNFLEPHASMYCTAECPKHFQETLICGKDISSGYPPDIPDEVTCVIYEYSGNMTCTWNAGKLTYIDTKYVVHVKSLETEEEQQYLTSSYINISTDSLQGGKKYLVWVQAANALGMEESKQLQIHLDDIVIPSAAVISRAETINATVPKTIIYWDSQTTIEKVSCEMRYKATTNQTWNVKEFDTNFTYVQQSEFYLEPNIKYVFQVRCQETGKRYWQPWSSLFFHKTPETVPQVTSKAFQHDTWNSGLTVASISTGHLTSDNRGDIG
- Experiment: SPR, scFv (summary table)
Entries and their Kd values follow.
Note: unit nM is implicit; provide only the numeric part.

Below, 2 binders whose answers are already recorded.
{"Binder": "Vκ2/VH2 consensus λ-capped, human IL23R specific scFv (scFv, scFv VL-linker-VH, made in E. coli; also called Vκ2VH2 capped) scFv: DIVMTQSPLSLPVTPGEPASISCQASENIYSFLAWYLQKPGQSPQLLIYSASKLAAGVPDRFSGSGSGTDFTLKISRVEAEDVGVYYCQQTNRYSNPDIYNVFGGGTKLTVLGGGGGSGGGGSGGGGSGGGGSQVQLKESGPALVKPTQTLTLTCTFSGIDFNSNYYMCWIRQPPGKALEWLACIYVGSHVNTYYANWAKGRLTISKDTSKNQVVLTMTNMDPVDTATYYCATSGSSVLYFKFWGQGTLVTVSS", "Kd / nM": 0.0741}
{"Binder": "Vκ1/VH5 consensus (uncapped), human IL23R specific scFv (scFv, scFv VL-linker-VH, made in E. coli; Vκ framework IV (uncapped, full consensus); also called Vκ1VH5 uncapped) scFv: DIQMTQSPSSLSASVGDRVTITCQASENIYSFLAWYQQKPGKAPKLLIYSASKLAAGVPSRFSGSGSGTDFTLTISSLQPEDFATYYCQQTNRYSNPDIYNVFGQGTKVEIKRGGGGSGGGGSGGGGSGGGGSEVQLVQSGAEVKKPGESLKISCKGSGIDFNSNYYMCWVRQMPGKGLEWMGCIYVGSHVNTYYANWAKGQVTISADKSISTAYLQWSSLKASDTAMYYCATSGSSVLYFKFWGQGTLVTVSS", "Kd / nM": 0.239}

Qu. Kd for Vκ3/VH4 consensus λ-capped, human IL23R specific scFv (scFv, scFv VL-linker-VH, made in E. coli; also called Vκ3VH4 capped) scFv: DIVLTQSPATLSLSPGERATLSCQASENIYSFLAWYQQKPGQAPRLLIYSASKLAAGVPARFSGSGSGTDFTLTISSLEPEDFAVYYCQQTNRYSNPDIYNVFGGGTKLTVLGGGGGSGGGGSGGGGSGGGGSQVQLQESGPGLVKPSETLSLTCTVSGIDFNSNYYMCWIRQPPGKGLEWIGCIYVGSHVNTYYANWAKGRVTISVDTSKNQFSLKLSSVTAADTAVYYCATSGSSVLYFKFWGQGTLVTVSS ?
Ans. 0.123
